Measured IC50, listed per entry for reference.
- experiment: Inhibition of GST tagged human/mouse chimeric MCL-1 using biotin-DLRPEIRIAQELRIZIGDEFNETYTRR as substrate incubated for 40 mins followed by substrate addition measured after 4 hrs by AlphaSCREEN assay
measurement_type: IC50 (µM)

1) Cc1ccc(CN(C(=O)N[C@@H](CS(=O)(=O)Cc2ccccc2)C(=O)O)C(=O)c2ccc3c(c2)CCN(Cc2ccccc2-c2ccc(Cl)cc2)C3)cc1    5.3
2) Cc1ccc(CN(C(=O)N[C@@H](CS(=O)(=O)CC2CCCCC2)C(=O)O)C(=O)c2ccc3c(c2)CCN(Cc2ccccc2-c2ccc(Cl)cc2)C3)cc1    1.8
3) Cc1ccc(CN(C(=O)N[C@@H](CS(=O)(=O)CC2CCCCC2)C(=O)O)C(=O)c2ccc(-c3ccccc3)cc2)cc1    10
4) CCCN(C(=O)N[C@@H](CSCc1ccccc1)C(=O)O)C(=O)c1ccc(-c2ccccc2)cc1    28
5) Cc1ccc(CN(C(=O)N[C@@H](CCCc2ccccc2)C(=O)O)C(=O)c2ccc(-c3ccccc3)cc2)cc1    8
6) Cc1ccc(CN(C(=O)N[C@@H](CS(=O)(=O)CC23CC4CC(CC(C4)C2)C3)C(=O)O)C(=O)c2ccc3c(c2)CCN(Cc2ccccc2-c2ccc(Cl)cc2)C3)cc1    1.8
7) Cc1ccc(CN(C(=O)N[C@@H](CSCc2ccccc2)C(=O)O)C(=O)c2ccc3c(c2)CCN(Cc2ccccc2-c2ccc(Cl)cc2)C3)cc1    2
8) Cc1ccc(CN(C(=O)N[C@@H](CSCc2ccccc2)C(=O)O)C(=O)c2ccc(-c3ccccc3)cc2)cc1    7.7

====

Reported IC50 values for the following compounds.
- experiment: Inhibition of human BCL-W deltaC23 C29S/A128E mutant by surface plasmon resonance assay
measurement_type: IC50

1) Cc1ccc(CN(C(=O)N[C@@H](CS(=O)(=O)Cc2ccccc2)C(=O)O)C(=O)c2ccc3c(c2)CCN(Cc2ccccc2-c2ccc(Cl)cc2)C3)cc1    > 12.5 µM
2) Cc1ccc(CN(C(=O)N[C@@H](CSCc2ccccc2)C(=O)O)C(=O)c2ccc3c(c2)CCN(Cc2ccccc2-c2ccc(Cl)cc2)C3)cc1    10 µM
3) Cc1ccc(CN(C(=O)N[C@@H](CS(=O)(=O)CC23CC4CC(CC(C4)C2)C3)C(=O)O)C(=O)c2ccc3c(c2)CCN(Cc2ccccc2-c2ccc(Cl)cc2)C3)cc1    > 12.5 µM
